Target: human cathepsin F (Homo sapiens, UniProt Q9UBX1)
Sequence (Q9UBX1 271-484): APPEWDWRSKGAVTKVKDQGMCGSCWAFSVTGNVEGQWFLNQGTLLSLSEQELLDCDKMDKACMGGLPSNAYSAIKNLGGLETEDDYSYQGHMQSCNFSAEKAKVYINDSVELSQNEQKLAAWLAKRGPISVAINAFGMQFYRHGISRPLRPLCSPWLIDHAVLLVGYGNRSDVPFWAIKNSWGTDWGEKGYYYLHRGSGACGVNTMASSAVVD
Experiment: Cathepsin F Assay
Type: biochemical
Conditions: IP from dose response curve; Z-Phe-Arg-AMC substrate, pH 5.5; read-out: hCat F (IP (nM))
Provide the reported log10 IC50 of each item.
Please keep in mind that the values are log10 of IC50 expressed in nM.

Exercise: Fill in log10 IC50 for record `C[C@@H](C#N)NC(=O)[C@@H]1CC(F)(F)CC[C@H]1c1nn2ccccc2c1-c1ccc(N2CCS(=O)(=O)CC2)cc1`
Solution: 2.36

// input: 5 molecules below; output: log10 IC50 for each
1. COc1ccc(-n2cc(-c3ccc(N4CCS(=O)(=O)CC4)cc3)c([C@@H]3CCCC[C@H]3C(=O)NC3(C#N)CC3)n2)nn1
2. CN=S1(=O)CCN(c2ccc(-c3c([C@@H]4CCCC[C@H]4C(=O)NC4(C#N)CC4)nn(-c4ncccc4F)c3C)cc2)CC1
3. N#CCNC(=O)[C@@H]1CC(F)(F)CC[C@H]1c1nn(-c2ccc(F)cc2)cc1-c1ccc(N2CCS(=O)(=O)CC2)cc1
4. N#CC1(NC(=O)[C@@H]2C[C@@H](F)CC[C@H]2c2nn(-c3ccc(F)cc3)cc2-c2ccc(N3CCS(=O)(=O)CC3)cc2)CC1
5. N#CC1(NC(=O)[C@@H]2CCCC[C@H]2c2nn(-c3ccc(OC(F)F)cc3)cc2-c2ccc(N3CCS(=O)(=O)CC3)cc2)CC1

Solution:
1: 2.82; 2: 3.95; 3: 1.04; 4: 2.96; 5: 2.59

---

Molecular target: human cathepsin F (Homo sapiens, UniProt Q9UBX1)
Experiment: Cathepsin F Assay
Assay type: biochemical
Conditions: IP from dose response curve; Z-Phe-Arg-AMC substrate, pH 5.5; read-out: hCat F (IP (nM))
Could you mark each record rule met if its IC50 falls strictly under 400 nM, and rule not met if it equals or exceeds it?

Some solved entries appear below for comparison.
Exercise: Hello, is IC50 of the following molecule strictly smaller than 400 nM? N#CC1(NC(=O)[C@@H]2CC(F)(F)CC[C@H]2c2nn(-c3ccc(F)cn3)c(CF)c2-c2ccc(N3CCS(=O)(=O)CC3)cc2)CC1 [Example 62]
Solution: rule met

Exercise: Hello, is IC50 of the following molecule strictly smaller than 400 nM? C[C@@H](C#N)NC(=O)[C@@H]1CCC(F)(F)C[C@H]1c1nn(-c2ncccc2F)cc1-c1ccc(N2CCS(=N)(=O)CC2)cc1 [Example 45]
Solution: rule not met

Exercise: Hello, is IC50 of the following molecule strictly smaller than 400 nM? N#CC1(NC(=O)[C@@H]2CCCC[C@H]2c2nn(-c3cccc(OC(F)(F)F)c3)cc2-c2ccc(N3CCS(=O)(=O)CC3)cc2)CC1 [Example 122]
Solution: rule not met

Exercise: Hello, is IC50 of the following molecule strictly smaller than 400 nM? N#CC1(NC(=O)[C@@H]2CC3CC3C[C@H]2c2nn(-c3ccc(F)cn3)cc2-c2ccc(N3CCS(=O)(=O)CC3)cc2)CC1 (single isomer, unassigned) [Example 152]
Solution: rule met

Exercise: Hello, is IC50 of the following molecule strictly smaller than 400 nM? N#CC1(NC(=O)[C@@H]2C[C@@H](F)CC[C@H]2c2nn(-c3ccc(F)cn3)cc2-c2ccc(N3CCS(=O)(=O)CC3)cc2)CC1 [Example 10]
Solution: rule not met

Exercise: Hello, is IC50 of the following molecule strictly smaller than 400 nM? CN=S1(=O)CCN(c2ccc(-c3cn(-c4ccc(F)cn4)nc3[C@@H]3CC[C@H](F)C[C@H]3C(=O)NC3(C#N)CC3)cc2)CC1 [Example 159]
Solution: rule not met

Exercise: Hello, is IC50 of the following molecule strictly smaller than 400 nM? COc1ccccc1-n1cc(-c2ccc(N3CCS(=O)(=O)CC3)cc2)c([C@@H]2CCCC[C@H]2C(=O)NC2(C#N)CC2)n1 [Example 92]
Solution: rule not met

Exercise: Hello, is IC50 of the following molecule strictly smaller than 400 nM? CNC(=O)N1CC(c2ccc(-c3cn(-c4ccc(F)cc4)nc3[C@@H]3CCCC[C@H]3C(=O)NC3(C#N)CC3)cc2)C1 [Example 135]
Solution: rule met

Exercise: Hello, is IC50 of the following molecule strictly smaller than 400 nM? N#CC1(NC(=O)[C@@H]2CCC(F)(F)C[C@H]2c2nn(-c3ncccc3F)cc2-c2ccc(N3CCS(=O)(=O)CC3)cc2)CC1 [Example 33]
Solution: rule not met

Exercise: Hello, is IC50 of the following molecule strictly smaller than 400 nM? N#CC1(NC(=O)[C@@H]2CCCC[C@H]2c2nn(-c3cccc(Cl)c3)cc2-c2ccc(N3CCS(=O)(=O)CC3)cc2)CC1 [Example 99]
Solution: rule met

// switching to the query molecule
Exercise: Hello, is IC50 of the following molecule strictly smaller than 400 nM? N#CC1(NC(=O)[C@@H]2CCCC[C@H]2c2nn(-c3ccc(F)cn3)c(CO)c2-c2ccc(N3CCS(=O)(=O)CC3)cc2)CC1 [Example 30]
Solution: rule not met
